assayNotes: Toxicity test (LD50)
experimentalParameters: mouse, in vivo; ip, ICR male mice
Protocol: Using 4-weeks-old male ICR mice weighing 15-20 g, the value of LD50 was calculated by orally or intraperitoneally administering the prolinal derivatives to the mice and counting the deceased mice according to the conventional method.
Residues, ends and D or L forms follow the SMILES beside them. *: point of attachment. Cbz = O=C(OCc1ccccc1)*; Boc = CC(C)(C)OC(=O)*
# note: exactly 900 mg/kg is not below, so it is condition not met; use condition met for LD50 strictly under it

// below: answered compounds
>>> classification("CC(C)(C)OC(=O)N[C@@H](CO)C(=O)N1CCC[C@H]1C=O [t-Butyloxycarbonyl-seryl-prolinal, t-butyloxycarbonyl-seryl-prolinal] (Boc-Ser-Pro-aldehyde)")
"condition not met"
>>> classification("O=C[C@@H]1CCCN1C(=O)CNC(=O)OCc1ccccc1 [N--Benzyloxycarbonyl-glycyl-prolinal, N-benzyloxycarbonyl-glycyl-prolinal] (Cbz-Gly-Pro-aldehyde)")
"condition not met"

Task item: Item C[C@H](NC(=O)OCc1ccccc1)C(=O)N1CCC[C@H]1C=O [N--Benzyloxycarbonyl-alanyl-prolinal, N-benzyloxycarbonyl-alanyl-prolinal] (Cbz-Ala-Pro-aldehyde) : LD50 beneath 900 mg/kg, strictly?
Reply: condition not met

Task item: Item CC(=O)NCC(=O)N1CCC[C@H]1C=O [Acetyl-glycyl-prolinal, acetyl-glycyl-prolinal] (Ac-Gly-Pro-aldehyde) : LD50 beneath 900 mg/kg, strictly?
Reply: condition not met

Task item: Item CC(C)[C@H](NC(=O)OCc1ccccc1)C(=O)N1CCC[C@H]1C=O [N--Benzyloxycarbonyl-valyl-prolinal, N-benzyloxycarbonyl-valyl-prolinal] (Cbz-Val-Pro-aldehyde) : LD50 beneath 900 mg/kg, strictly?
Reply: condition met

Task item: Item CC(=O)N1CCC[C@H]1C(=O)N1CCC[C@H]1C=O [Acetyl-prolyl-prolinal, acetyl-prolyl-prolinal] (Ac-Pro-Pro-aldehyde) : LD50 beneath 900 mg/kg, strictly?
Reply: condition met

Task item: Item O=C[C@@H]1CCCN1C(=O)[C@@H]1CCCN1C(=O)OCc1ccccc1 [N--Benzyloxycarbonyl-prolyl-prolinal, N-benzyloxycarbonyl-prolyl-prolinal] (Cbz-Pro-Pro-aldehyde) : LD50 beneath 900 mg/kg, strictly?
Reply: condition not met

Task item: Item CC(C)(C)OC(=O)N[C@@H](Cc1ccccc1)C(=O)N1CCC[C@H]1C=O [t-Butyloxycarbonyl-phenylalanyl-prolinal, t-butyloxycarbonyl-phenylalanyl-prolinal] (Boc-Phe-Pro-aldehyde) : LD50 beneath 900 mg/kg, strictly?
Reply: condition not met
